Measured On: SHP2-C SH2
Experiment Notes: SH2 binding enrichment of the phosphorylated peptide, bacterial display (enrichment ratio); higher = better substrate or ligand; peptides without Tyr show the background
Reported Property: SH2 binding enrichment

1: LEHCQYVTEKV [ALDOB_Y204]
2: ITRDIYETDFF [INSR_Y1185_M1180I_YF]
Sort 1 and 2 by SH2 binding enrichment descending and give the first. Answer format: the label of the selected item.
1
(1: 0.821, 2: 0.485)

1: EKSREYDRLYE [PIK3R1_Y463]
2: GSRGKYSSGFR [ATM_Y332]
3: IFCIQYNICAF [MYH4_Y820_R823C]
4: IIRFNYLLDVL [FGFR4_Y237_S232I_YF]
Task field, ranking: reported SH2 binding enrichment, descending order. # output: labels, in the requested order
4, 3, 2, 1
(4: 2.19, 3: 1.47, 2: 0.912, 1: 0.612)

P: SIGLGYHKDLQ [NF1_Y1169]
Q: EAESWYQTKFE [KRT75_Y342_YF]
I'm curious, which of these has a smaller SH2 binding enrichment number: P or Q ? Your answer should be the label of the entry you select.
Q
(Q: 0.434, P: 0.639)

====

System: Fer (mouse)
Experiment Notes: phosphorylation enrichment, bacterial display (enrichment ratio); higher = better substrate or ligand; peptides without Tyr show the background
Each entry below carries its recorded phosphorylation enrichment.
Reply briefly: the number, and no unit.

Worked cases, answers included:
FKELVYETVRV [FSHB_Y76]: 18.5
PQGVRYIYTID [DCX_Y103]: 1
ANNEYYFQVCA: 0.614
FAFQLYDLDPD [CHP2_Y123_R127P_YF]: 0.62

For LGSNGYKKLLK [SEPSECS_Y334] , write its phosphorylation enrichment.
0.351

Please supply the value of reported phosphorylation enrichment for the item LSGVIYVILGK [PMP22_Y153_R157G]
0.754

Input VHKKGYNKLNQ [ZNF676_Y98_E96K] , output reported phosphorylation enrichment.
0.439

Assign phosphorylation enrichment to the following record: SLLTDYSPQLQ [OTC_Y345]
0.453

Supply recorded phosphorylation enrichment for LSQAKYQIRYR [CRLF1_Y272_F268S] here.
0.467

Consider the sequence PRAGVYPEKDQ [DNM2_Y626_L621P] . State its measured phosphorylation enrichment.
0.658

Tell me measured phosphorylation enrichment for SGVNKYSTAFG [GJB3_Y16] please.
0.394

Indicate its recorded phosphorylation enrichment; the sequence in question is LSGFGYRLSDQ [PDCD6_Y124]
0.449

====

Measured On: EPHB1 (UniProt P54762)
Sequence (P54762 whole entry, looked up): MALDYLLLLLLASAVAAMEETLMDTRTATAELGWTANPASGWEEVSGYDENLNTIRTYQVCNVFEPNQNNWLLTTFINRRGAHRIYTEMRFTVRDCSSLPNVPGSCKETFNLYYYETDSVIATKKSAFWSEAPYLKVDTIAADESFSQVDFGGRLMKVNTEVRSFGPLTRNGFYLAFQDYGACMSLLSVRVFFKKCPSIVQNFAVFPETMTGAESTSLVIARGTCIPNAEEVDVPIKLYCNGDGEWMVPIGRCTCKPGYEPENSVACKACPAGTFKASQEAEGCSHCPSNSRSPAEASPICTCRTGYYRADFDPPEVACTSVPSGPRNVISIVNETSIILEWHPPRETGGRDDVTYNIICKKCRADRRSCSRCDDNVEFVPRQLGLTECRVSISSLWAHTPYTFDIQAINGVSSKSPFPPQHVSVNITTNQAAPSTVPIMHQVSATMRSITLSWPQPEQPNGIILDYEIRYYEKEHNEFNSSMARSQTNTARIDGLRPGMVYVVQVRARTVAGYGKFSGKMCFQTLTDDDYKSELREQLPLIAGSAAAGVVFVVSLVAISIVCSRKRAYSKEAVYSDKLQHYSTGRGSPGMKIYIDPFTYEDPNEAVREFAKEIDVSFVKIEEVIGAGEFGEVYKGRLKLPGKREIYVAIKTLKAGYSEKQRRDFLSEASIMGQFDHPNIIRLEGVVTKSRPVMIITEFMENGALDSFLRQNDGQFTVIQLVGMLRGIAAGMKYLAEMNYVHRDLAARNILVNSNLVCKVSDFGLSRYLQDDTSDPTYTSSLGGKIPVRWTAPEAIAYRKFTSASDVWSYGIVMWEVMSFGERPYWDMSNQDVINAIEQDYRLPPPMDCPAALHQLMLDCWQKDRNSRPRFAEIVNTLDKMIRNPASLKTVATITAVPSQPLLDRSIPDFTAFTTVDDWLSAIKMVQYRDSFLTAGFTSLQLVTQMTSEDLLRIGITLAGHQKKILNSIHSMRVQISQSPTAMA
Experiment Notes: phosphorylation enrichment, bacterial display (enrichment ratio); higher = better substrate or ligand; peptides without Tyr show the background
Reported Property: phosphorylation enrichment
Lab note: record just the number, no unit beside it.

Example results:
IVLRSYPASGH [NID2_Y449]: 0.532
KHMADYPDYKY [SOX11_Y113]: 0.458
RAYSWYQHQRA [NDST1_Y714]: 0.538
LDLSFYPTSSS [EMD_Y182_YF]: 1.33
LYDPDYMKVIL [CYP4A22_Y104]: 2.9

Enter phosphorylation enrichment (test system EPHB1 (UniProt P54762)) for NTYEKYWPFYQ [GATM_Y103]
6.55

State measured phosphorylation enrichment of the sequence ADTETYLLEKS [MYH7_Y266_I263T] with EPHB1 (UniProt P54762).
0.449
